- Test system: MARIMO
- assay-summary: cell viability relative to vehicle control; higher = less cytotoxic;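 further: after 48 h exposure read by CellTiter-Glo luminescence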
- experimental-setup: 10 µM; SRSF2 genotype: SRSF2 wt/wt
Where a name gives a salt, the structure may show the parent alone.
Give measured cell viability for each item. Keep answers brief.
Numbers only, in %.

Would you mind giving cell viability for every compound in the list below?
1. COc1cc([C@@H]2Oc3cc([C@H]4Oc5cc(O)cc(O)c5C(=O)[C@@H]4O)ccc3O[C@H]2CO)ccc1O [Silymarin (Silybin B)]
2. CC(C)(C)[N+]([O-])=Cc1ccc(S(=O)(=O)O)cc1S(=O)(=O)O [NXY-059 (Disufenton sodium)]
3. CC(C)CCCC(C)C1CCC2C3=CC=C4CC(O)CCC4(C)C3CCC21C (centres undefined) [7-Dehydrocholesterol]
4. Cc1cc(C2CCCCC2)n(O)c(=O)c1

Result:
108
110
87
26.4

Count: 2. Required value per item: cell viability.
1. CC(/C=C1\SC(=S)N(CC(=O)O)C1=O)=C\c1ccccc1
2. CCN(CC)C(=O)C1(c2ccccc2)CC1CN (centres undefined) [Milnacipran HCl]

Result:
1: 102; 2: 106

Record cell viability per entry; entries follow.
1. Cc1ccc(C=O)o1
2. COC(=O)[C@H](CCSC)NC(=O)c1ccc(NC[C@@H](N)CS)cc1-c1ccccc1
3. Nc1nc2[nH]cnc2c(=S)[nH]1

Result:
1. 94.2
2. 78.5
3. 37.5

----------
- Test system: MARIMO
- assay-summary: cell viability relative to vehicle control; higher = less cytotoxic
- experimental-setup: 10 µM; SRSF2 genotype: SRSF2 P95H/wt
readout-kind: cell viability

The examples below pair each entry with its known result.
Short answer for C[C@]1(COc2ccc(N3CCC(Oc4ccc(OC(F)(F)F)cc4)CC3)cc2)Cn2cc([N+](=O)[O-])nc2O1 : cell viability was 94.6%

// C[C@H]1CNC(=O)c2cnn3ccc(nc23)N[C@H](C)c2cc(F)ccc2O1 : cell viability value = 48.6%

Given item Nc1nc(=O)n([C@@H]2CS[C@H](CO)O2)cc1F , the value recorded as its cell viability is 103%

Entry under test: Cc1ccc(NC(=O)C2(c3ccc4c(c3)OC(F)(F)O4)CC2)nc1-c1cccc(C(=O)O)c1 . Its cell viability was 115%

CNC(=O)c1nn(C)c2c1C(C)(C)Cc1cnc(Nc3ccc(N4CCN(C)CC4)cc3)nc1-2 yielded cell viability of 21.4%

Give cell viability for each listed item.
1. COc1ccc(-c2cc(=O)c3c(O)cc(O[C@@H]4O[C@H](CO[C@@H]5O[C@@H](C)[C@H](O)[C@@H](O)[C@H]5O)[C@@H](O)[C@H](O)[C@H]4O)cc3o2)cc1
2. C=CCNC(N)=S
3. NC1(Cc2ccc(Cl)cc2)CCN(c2ncnc3[nH]ccc23)CC1
4. CC(=O)OC1CC2CCC1(C)C2(C)C (centres undefined) [Bornyl acetate]

Result:
95.8%
108%
36.5%
107%

----------
- Tested on: MOLM14
- assay-summary: cell viability relative to vehicle control; higher = less cytotoxic
- experimental-setup: 10 µM; SRSF2 genotype: SRSF2 P95H/wt
// classify: if (cell viability < 90%) MET else NOT MET

Observe how each entry below is paired with its result.
Ask: Answer whether the compound CC(=O)C1=C(O)C=C2Oc3c(C(C)=O)c(O)c(C)c(O)c3C2(C)C1=O (single isomer, unassigned; (+)) [(+)-Usniacin (D-Usnic acid)] has cell viability strictly less than 90%
Result: NOT MET

Ask: Does the reported cell viability of the following compound sit strictly below 90%? CC(C)[C@H](NC(=O)OCc1ccccc1)C(=O)N[C@@H](C)C(=O)N[C@@H](CC(=O)O)C(=O)CF
Result: NOT MET

Ask: Strictly below 90% in cell viability? CCCCCCCC/C=C\CCCCCCCCCCCC(=O)O
Result: NOT MET

Ask: Does the reported cell viability of the following compound sit strictly below 90%? NCCc1c[nH]cn1 [Histamine 2HCl]
Result: MET

Ask: Hello, is cell viability of the following compound strictly smaller than 90%? C#C[C@]1(O)CC[C@H]2[C@@H]3CCC4=CC(=O)CC[C@@H]4[C@H]3C(=C)C[C@@]21CC
Result: MET

Continuing:
Ask: Item O=C(O)c1ccccc1-c1c2cc(Br)c(=O)c(Br)c-2oc2c(Br)c(O)c(Br)cc12 [Eosin Y Disodium] : cell viability beneath 90%, strictly?
Result: MET

Ask: Identify whether the compound C[C@@H]1CCO[C@H]2Cn3cc(C(=O)NCc4ccc(F)cc4F)c(=O)c(O)c3C(=O)N12 records cell viability below 90%.
Result: NOT MET
